Attribution: patent US9120762B2

Parameter AUC: see the listing below.
Experiment: Pharmacokinetics assay in rats
Assay type: in vivo, SD rats
Details: both sexes, SD, rat, plasma, po, 50 mg/kg, SD rats, intragastric, 50 mg/Kg (as free acid); read-out: Area Under Curve AUC
Experimental: The compounds of the present disclosure were administrated intragastrically to rats to determine the drug concentration in plasma at different time points by HPLC-UV. The pharmacokinetic behavior of the compounds of the present disclosure was studied and evaluated in rats. […] 40 μL of the supernatant was analyzed by HPLC-UV. […]
Answer format: numeric, µg·h/mL implied, no suffix.

Worked cases, AUC given:
> print(dat)
                                   molecule  property  meas.value
1  CC1=NN(c2ccc3c(c2)CCC3)C(=O)/C1=N\Nc1cccc(-c2csc(C(=O)O)c2)c1O.NCCO.NCCO [Example 19]       AUC        89.2
2  CC1=NN(c2ccc(C)c(C)c2)C(=O)/C1=N\Nc1cccc(-c2cccc(C(=O)O)c2)c1O [Eltrombopag, eltrombopag, reference compound]       AUC         680
3  CC1=NN(c2ccc3c(c2)CCCC3)C(=O)/C1=N\Nc1cccc(-c2coc(C(=O)O)c2)c1O.NCCO.NCCO [Example 22]       AUC         603

CC1=NN(c2ccc3c(c2)C(C)(C)CC3)C(=O)/C1=N\Nc1cccc(-c2ccc(C(=O)O)o2)c1O.NCCO.NCCO [Example 4] yielded AUC of 19

CC1=NN(c2ccc3c(c2)CCCC3)C(=O)/C1=N\Nc1cccc(-c2ccc(C(=O)[O-])o2)c1[O-].[Na+].[Na+] [Example 14] yielded AUC of 132

CC1=NN(c2ccc3c(c2)CCCC3)C(=O)/C1=N\Nc1cccc(-c2coc(C(=O)O)c2)c1O [Example 22f] yielded AUC of 151

CC1=NN(c2ccc3c(c2)CCC3)C(=O)/C1=N\Nc1cccc(-c2ccc(C(=O)O)o2)c1O.NCCO.NCCO [Example 16] yielded AUC of 52.4

CC1=NN(c2ccc3c(c2)CCC3)C(=O)/C1=N\Nc1cccc(-c2cccc(C(=O)O)c2)c1O.NCCO.NCCO [Example 1] yielded AUC of 501

CC1=NN(c2ccc3c(c2)CCCC3)C(=O)/C1=N\Nc1cccc(-c2ccc(C(=O)O)o2)c1O.NCCO.NCCO [Example 7] yielded AUC of 469

* * *

experiment: Hygroscopicity assay, standing 48 hours at 25° C., humidity 79%; assay type: physicochemical; settings: 48 hours, 25° C., humidity 79%
Property: Percentage of weight gain
Quote the value and follow it with the unit of measurement.

Worked cases, Percentage of weight gain given:
> print(dat)
                                   compound  meas.value
1  CC1=NN(c2ccc3c(c2)CCCC3)C(=O)/C1=N\Nc1cccc(-c2ccc(C(=O)O)o2)c1O [Example 23]       8.48%
2  CC1=NN(c2ccc3c(c2)CCCC3)C(=O)/C1=N\Nc1cccc(-c2ccc(C(=O)O)o2)c1O [Example 10]       15.7%
3  CC1=NN(c2ccc3c(c2)CCCC3)C(=O)/C1=N\Nc1cccc(-c2ccc(C(=O)O)o2)c1O [Example 8]       13.9%
4  CC1=NN(c2ccc3c(c2)CCCC3)C(=O)/C1=N\Nc1cccc(-c2ccc(C(=O)O)o2)c1O.NCCO.NCCO        1.2%

Could you now look at the following compound, please?
CC1=NN(c2ccc3c(c2)CCCC3)C(=O)/C1=N\Nc1cccc(-c2ccc(C(=O)O)o2)c1O [Example 12] yielded Percentage of weight gain of 2.71%

* * *

assay: Pharmacokinetics assay in Beagle dogs; assay type: in vivo; conditions: male, beagle, dog, plasma, po, 5 mg/kg, intragastric, 5 mg/kg (as free acid), read-out: Area Under Curve AUC
Property: AUC (ng·h/mL)
Answer format: numeric, ng·h/mL implied, no suffix.

> print(dat)
                                     smiles  meas.value
1  CC1=NN(c2ccc3c(c2)CCCC3)C(=O)/C1=N\Nc1cccc(-c2ccc(C(=O)O)o2)c1O       11000

CC1=NN(c2ccc3c(c2)CCCC3)C(=O)/C1=N\Nc1cccc(-c2ccc(C(=O)O)o2)c1O.NCCO.NCCO yielded AUC of 12200

* * *

test: Pharmacokinetics assay in rats; type: in vivo, SD rats; details: SD rats, intragastric, 50 mg/Kg (as free acid); 50 mg/kg
Parameter Area Under Curve AUC: see the listing below.
Answer format: numeric, µg·h/mL implied, no suffix.

Worked cases, Area Under Curve AUC given:
> print(dat)
                                   compound  meas.value
1  CC1=NN(c2ccc3c(c2)C(C)(C)CC3)C(=O)/C1=N\Nc1cccc(-c2ccc(C(=O)O)o2)c1O [Example 6]         175
2  CC1=NN(c2ccc3c(c2)CCCC3)C(=O)/C1=N\Nc1cccc(-c2ccc(C(=O)O)o2)c1O [Example 12]        58.5
3  CC1=NN(c2ccc3c(c2)CCCC3)C(=O)/C1=N\Nc1cccc(-c2ccc(C(=O)O)o2)c1O [Example 15]         168
4  CC1=NN(c2ccc3c(c2)CCC3)C(=O)/C1=N\Nc1cccc(-c2csc(C(=O)O)c2)c1O [Example 21]         380
5  CC1=NN(c2ccc3c(c2)CCC3)C(=O)/C1=N\Nc1cccc(-c2ccc(C(=O)O)o2)c1O [Example 18]         119

CC1=NN(c2ccc3c(c2)CCCC3)C(=O)/C1=N\Nc1cccc(-c2ccc(C(=O)O)o2)c1O [Example 9] yielded Area Under Curve AUC of 146

CC1=NN(c2ccc3c(c2)CCCC3)C(=O)/C1=N\Nc1cccc(-c2ccc(C(=O)O)o2)c1O [Example 10] yielded Area Under Curve AUC of 381

CC1=NN(c2ccc3c(c2)CCCC3)C(=O)/C1=N\Nc1cccc(-c2ccc(C(=O)O)o2)c1O [Example 23] yielded Area Under Curve AUC of 123

CC1=NN(c2ccc3c(c2)CCC3)C(=O)/C1=N\Nc1cccc(-c2ccc(C(=O)O)o2)c1O [Example 16a] yielded Area Under Curve AUC of 15.0

CC1=NN(c2ccc3c(c2)CCCC3)C(=O)/C1=N\Nc1cccc(-c2ccc(C(=O)O)o2)c1O [Example 13] yielded Area Under Curve AUC of 42.8

* * *

experiment: Solubility assay in water, 0.1% hydrochloric acid and methanol; format: physicochemical; conditions: methanol
Parameter solubility: see the listing below.
Answer format: numeric, µg/mL implied, no suffix.

Worked cases, solubility given:
> print(dat)
                                   compound    property  meas.value
1  CC1=NN(c2ccc3c(c2)CCC3)C(=O)/C1=N\Nc1cccc(-c2cccc(C(=O)O)c2)c1O [Example 3]  solubility        1534
2  CC1=NN(c2ccc3c(c2)CCC3)C(=O)/C1=N\Nc1cccc(-c2csc(C(=O)O)c2)c1O [Example 21]  solubility        2416
3  CC1=NN(c2ccc3c(c2)CCC3)C(=O)/C1=N\Nc1cccc(-c2ccc(C(=O)O)o2)c1O [Example 18]  solubility        6096

Could you now look at the following compound, please?
CC1=NN(c2ccc3c(c2)C(C)(C)CC3)C(=O)/C1=N\Nc1cccc(-c2ccc(C(=O)O)o2)c1O [Example 6] yielded solubility of 3009

* * *

assay: Pharmacokinetics assay in rats; type: in vivo, SD rats; settings: SD rats, intragastric, 50 mg/Kg (as free acid); 50 mg/kg
Parameter Mean Residence Time MRT: see the listing below.
Quote the value and follow it with the unit of measurement.

Worked cases, Mean Residence Time MRT given:
> print(dat)
                                   molecule                 property     meas.value
1  CC1=NN(c2ccc3c(c2)CCC3)C(=O)/C1=N\Nc1cccc(-c2cccc(C(=O)O)c2)c1O [Example 3]  Mean Residence Time MRT   13.0 ± 0.9 h
2  CC1=NN(c2ccc3c(c2)C(C)(C)CC3)C(=O)/C1=N\Nc1cccc(-c2ccc(C(=O)O)o2)c1O [Example 4h]  Mean Residence Time MRT  31.7 ± 24.6 h
3  CC1=NN(c2ccc3c(c2)CCC3)C(=O)/C1=N\Nc1cccc(-c2csc(C(=O)O)c2)c1O [Example 19d]  Mean Residence Time MRT  3.01 ± 1.99 h
4  CC1=NN(c2ccc3c(c2)CCC3)C(=O)/C1=N\Nc1cccc(-c2csc(C(=O)O)c2)c1O [Example 21]  Mean Residence Time MRT  8.61 ± 0.31 h

CC1=NN(c2ccc3c(c2)C(C)(C)CC3)C(=O)/C1=N\Nc1cccc(-c2ccc(C(=O)O)o2)c1O [Example 5] yielded Mean Residence Time MRT of 20.8 ± 9.1 h

CC1=NN(c2ccc3c(c2)C(C)(C)CC3)C(=O)/C1=N\Nc1cccc(-c2ccc(C(=O)O)o2)c1O [Example 6] yielded Mean Residence Time MRT of 60.4 ± 90.2 h

CC1=NN(c2ccc3c(c2)CCC3)C(=O)/C1=N\Nc1cccc(-c2cccc(C(=O)O)c2)c1O [Example 1j] yielded Mean Residence Time MRT of 3.89 ± 1.78 h

CC1=NN(c2ccc3c(c2)CCC3)C(=O)/C1=N\Nc1cccc(-c2ccc(C(=O)O)o2)c1O yielded Mean Residence Time MRT of 5.31 ± 2.64 h
